The values you see were collected from the supplement of paper PMC3414501.

test system: S. cerevisiae SK1 pCDA2-eGFP (USY613), sporulating; assay: CDA2-GFP sporulation assay sensitivity score (z-score vs DMSO controls); higher = stronger inhibition of sporulation, active = hit call of the paper;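 also: active if sensitivity score above 5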
Counter-ions that a name gives are not always drawn.
PARAMETER: CDA2-GFP sporulation assay sensitivity score
When you answer, write just the number.

# CDA2-GFP sporulation assay sensitivity score measured on S. cerevisiae SK1 pCDA2-eGFP (USY613), sporulating for item COC(=O)C1=C(C)NC(C)=C(C(=O)OC2CCCN(Cc3ccccc3)C2)C1c1cccc([N+](=O)[O-])c1 (stereo unspecified) [Benidipine hydrochloride] (stock concentration (mM, diluted 1:100): 6) = 4.32

The recorded CDA2-GFP sporulation assay sensitivity score with S. cerevisiae SK1 pCDA2-eGFP (USY613), sporulating for CN1CCN(c2c(F)cc3c(=O)c(C(=O)O)cn4c3c2SCC4)CC1 [Rufloxacin hydrochloride] (stock concentration (mM, diluted 1:100): 10) was -0.17

S. cerevisiae SK1 pCDA2-eGFP (USY613), sporulating CDA2-GFP sporulation assay sensitivity score of O=C1N(c2ccccc2)c2ccccc2C1(Cc1ccncc1)Cc1ccncc1 (stock concentration (mM, diluted 1:100): 10) is 0.26

Hey, S. cerevisiae SK1 pCDA2-eGFP (USY613), sporulating data for COc1cc(CNC(=O)CCCC/C=C/C(C)C)ccc1O [Capsaicin] (stock concentration (mM, diluted 1:100): 10) : CDA2-GFP sporulation assay sensitivity score came out at -1.12

Form: item CN1C2CCCC1CC(NC(=O)c1nn(C)c3ccccc13)C2 (stereo unspecified) [Granisetron hydrochloride] (stock concentration (mM, diluted 1:100): 9) ; test system S. cerevisiae SK1 pCDA2-eGFP (USY613), sporulating; CDA2-GFP sporulation assay sensitivity score: 2.25

Observed CDA2-GFP sporulation assay sensitivity score on S. cerevisiae SK1 pCDA2-eGFP (USY613), sporulating, entry Cc1ncc([N+](=O)[O-])n1CCO [Metronidazole] (stock concentration (mM, diluted 1:100): 10) , equals 0.28

For N#Cc1ccc(C(c2ccc(C#N)cc2)n2cncn2)cc1 [Letrozol] (stock concentration (mM, diluted 1:100): 10) on S. cerevisiae SK1 pCDA2-eGFP (USY613), sporulating, measured CDA2-GFP sporulation assay sensitivity score was 1.08

With S. cerevisiae SK1 pCDA2-eGFP (USY613), sporulating as the test system, CCOc1cc(N)c(Cl)cc1C(=O)NCC1CN(Cc2ccc(F)cc2)CCO1 (stereo unspecified) [Mosapride citrate] (stock concentration (mM, diluted 1:100): 6.9) showed CDA2-GFP sporulation assay sensitivity score of 1.67

Sample CC(C)(C)NCC(O)c1ccc(O)c(CO)c1 (stereo unspecified) [Salbutamol sulfate] (stock concentration (mM, diluted 1:100): 9.7) , system: S. cerevisiae SK1 pCDA2-eGFP (USY613), sporulating. Its CDA2-GFP sporulation assay sensitivity score is -0.05

Entry C[C@@H]1O[C@@H](OC[C@H]2O[C@@H](Oc3c(-c4ccc(O)c(O)c4)oc4cc(O)cc(O)c4c3=O)[C@H](O)[C@@H](O)[C@@H]2O)[C@H](O)[C@H](O)[C@H]1O [Rutin] (stock concentration (mM, diluted 1:100): 10) ; assay system S. cerevisiae SK1 pCDA2-eGFP (USY613), sporulating; CDA2-GFP sporulation assay sensitivity score recorded at -0.59

Sample Oc1ccc(C2CNCCc3c2cc(O)c(O)c3Cl)cc1 (stereo unspecified) [Fenoldopam mesylate] (stock concentration (mM, diluted 1:100): 7.7) , system: S. cerevisiae SK1 pCDA2-eGFP (USY613), sporulating. Its CDA2-GFP sporulation assay sensitivity score is -0.81
